System: Saccharomyces cerevisiae;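 further: PSI is a weighted mean of sequencing reads over stability bins, variants kept only with over 10 reads, mCherry proximal and sfGFP distal, peptide attached via GGGS linker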
experiment summary: protein stability index of tFT-peptide fusion (C-terminal peptide) (PSI (0-1 scale)); higher = more stable (slower turnover)
test context: genetic background: wild type; temperature: 30 C
observable: protein stability index

[
  {
    "monomer sequence": "WFSSPVTISTRK",
    "observable": "protein stability index",
    "number": 0.692
  },
  {
    "monomer sequence": "RIALWPTSMPAL",
    "observable": "protein stability index",
    "number": 0.684
  },
  {
    "monomer sequence": "HITMERTERTKY",
    "observable": "protein stability index",
    "number": 0.715
  },
  {
    "monomer sequence": "VSVLCGSRLAFE",
    "observable": "protein stability index",
    "number": 0.685
  },
  {
    "monomer sequence": "GERGTRAERAGA",
    "observable": "protein stability index",
    "number": 0.682
  },
  {
    "monomer sequence": "GMQVRNTKERRG",
    "observable": "protein stability index",
    "number": 0.714
  },
  {
    "monomer sequence": "VSWVMSEMRKGE",
    "observable": "protein stability index",
    "number": 0.697
  },
  {
    "monomer sequence": "PPPLPPAPPSPP",
    "observable": "protein stability index",
    "number": 0.703
  },
  {
    "monomer sequence": "PPLPPLRPIRSP",
    "observable": "protein stability index",
    "number": 0.702
  },
  {
    "monomer sequence": "KKKPKKQRKNKR",
    "observable": "protein stability index",
    "number": 0.684
  },
  {
    "monomer sequence": "VIARALGLFLSD",
    "observable": "protein stability index",
    "number": 0.693
  },
  {
    "monomer sequence": "GITAWMAHPRSV",
    "observable": "protein stability index",
    "number": 0.706
  }
]
